assayName: self-splicing fitness, log relative to wild type (ln ratio); higher = more splicing; Tetrahymena group I intron in knt gene, E. coli kanamycin selection, DiMSum; sequences stand for … in CUCUCU…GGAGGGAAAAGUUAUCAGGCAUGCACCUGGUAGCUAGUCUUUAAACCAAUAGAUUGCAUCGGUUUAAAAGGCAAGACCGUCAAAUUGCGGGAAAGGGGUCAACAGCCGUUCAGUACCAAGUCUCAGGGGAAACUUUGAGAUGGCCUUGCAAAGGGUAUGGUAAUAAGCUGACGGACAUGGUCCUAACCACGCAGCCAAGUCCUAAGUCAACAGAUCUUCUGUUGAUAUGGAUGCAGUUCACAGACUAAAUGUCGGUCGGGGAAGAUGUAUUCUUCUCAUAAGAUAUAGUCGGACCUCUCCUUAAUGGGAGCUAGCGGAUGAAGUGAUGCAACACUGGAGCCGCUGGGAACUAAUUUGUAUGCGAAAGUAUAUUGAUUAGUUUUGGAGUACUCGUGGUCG;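 also: selection with 25 µg/mL kanamycin versus none on LB agar overnight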
studyConditions: 30 °C
Would you please tag the item fulfilled when its self-splicing fitness (ln) is -2 or above, and not fulfilled when it is below?

- AUAGAGCAAUAUUACGUACA: fulfilled

Does the sequence `UACGAGCAAUAUUACGUGCC` have recorded self-splicing fitness (ln) that is -2 or more?
not fulfilled

Does the sequence `AGGCAGCAAUAUUACGCCGG` have recorded self-splicing fitness (ln) that is -2 or more?
fulfilled

Does the sequence `UGGUAGCAAUAUUACGUUCC` have recorded self-splicing fitness (ln) that is -2 or more?
not fulfilled

----------
Provide the reported self-splicing fitness (ln) of each item.
assayName: self-splicing fitness, log relative to wild type (ln ratio); higher = more splicing; Tetrahymena group I intron in knt gene, E. coli kanamycin selection, DiMSum; sequences stand for … in CUCUCU…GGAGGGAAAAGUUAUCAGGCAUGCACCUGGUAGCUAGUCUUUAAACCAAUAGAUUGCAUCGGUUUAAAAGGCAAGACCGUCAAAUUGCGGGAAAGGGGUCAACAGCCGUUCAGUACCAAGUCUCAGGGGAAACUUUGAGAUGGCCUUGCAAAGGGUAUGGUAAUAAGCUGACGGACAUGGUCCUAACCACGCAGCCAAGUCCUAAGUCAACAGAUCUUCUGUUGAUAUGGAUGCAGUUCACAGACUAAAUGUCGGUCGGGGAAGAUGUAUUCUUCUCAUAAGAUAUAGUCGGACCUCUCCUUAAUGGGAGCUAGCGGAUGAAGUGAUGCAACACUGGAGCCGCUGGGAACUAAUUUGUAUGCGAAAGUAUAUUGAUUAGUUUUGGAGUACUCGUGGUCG
studyConditions: 30 °C

Answered cases to consult:
- GGAAAGCAAUAUUACGAUAU: -0.885
- ACUUAGCAAUAUUACGGUGU: -2.79
- GACUAGCAAUAUUACGUCGA: -1.96
- GCCCAGCAAUAUUACGCUCA: -0.789
- UGUGAGCAAUAUUACGGCUG: -0.445
- AUGAAGCAAUAUUACGCCUC: -0.0224
- AAUGAGCAAUAUUACGCAUG: -2.58
- ACUAAGCAAUAUUACGCUCC: -1.24

State recorded self-splicing fitness (ln) for all listed sequences.
1. GAGCAGCAAUAUUACGAAAU
2. CCUAAGCAAUAUUACGAAAC

[-2.45, -3.48]
